Tested on: Mustard
PROTOCOL CONDITIONS: Pre-emergence soil treatment; 150 g a.i./ha; 30 days; Table 9
OUTCOME MEASURE: efficiency, Mustard (%)

[
  {
    "COMPOUND": "CON=C(C(=O)OC)c1ccccc1COc1cccc(-c2nc(Cl)c(Cl)cc2Cl)c1 [Compound 99]",
    "MEASUREMENT UNIT": "%",
    "MEASURED VALUE": 0
  },
  {
    "COMPOUND": "CON=C(C(=O)OC)c1ccccc1COc1ccc(-c2ncc(Cl)cc2Cl)cc1 [Compound 133]",
    "MEASUREMENT UNIT": "%",
    "MEASURED VALUE": 100
  },
  {
    "COMPOUND": "CON=C(C(=O)OC)c1ccccc1COc1cccc(-c2ncc(C(F)(F)F)cc2Cl)c1 [Compound 101]",
    "MEASUREMENT UNIT": "%",
    "MEASURED VALUE": 100
  },
  {
    "COMPOUND": "CON=C(C(=O)OC)c1ccccc1COc1cccc(-c2ccc(Cl)cn2)c1 [Compound 19]",
    "MEASUREMENT UNIT": "%",
    "MEASURED VALUE": 0
  },
  {
    "COMPOUND": "CON=C(C(=O)OC)c1ccccc1COc1ccc(-c2cccc(C)n2)cc1 [Compound 120]",
    "MEASUREMENT UNIT": "%",
    "MEASURED VALUE": 20
  },
  {
    "COMPOUND": "CON=C(C(=O)OC)c1ccccc1COc1cc(-c2ccccn2)ccc1C(F)(F)F [Compound 112]",
    "MEASUREMENT UNIT": "%",
    "MEASURED VALUE": 50
  },
  {
    "COMPOUND": "CON=C(C(=O)OC)c1ccccc1COc1ccc(-c2ccc(Cl)cn2)cc1 [Compound 27]",
    "MEASUREMENT UNIT": "%",
    "MEASURED VALUE": 30
  },
  {
    "COMPOUND": "CON=C(C(=O)OC)c1ccccc1COc1cccc(-c2cccc(C)n2)c1 [Compound 85]",
    "MEASUREMENT UNIT": "%",
    "MEASURED VALUE": 20
  },
  {
    "COMPOUND": "CON=C(C(=O)OC)c1ccccc1COc1cccc(-c2ncc(Cl)cc2Cl)c1 [Compound 98]",
    "MEASUREMENT UNIT": "%",
    "MEASURED VALUE": 50
  },
  {
    "COMPOUND": "CON=C(C(=O)OC)c1ccccc1COc1cccc(-c2ncccc2C)c1 [Compound 83]",
    "MEASUREMENT UNIT": "%",
    "MEASURED VALUE": 0
  }
]
